As shown below, each of these binders has a reported EC50 value.
Target: T1, recombinant human Siglec-8 extracellular domain (ECD) (human, UniProt Q9NYZ4 17-363)
T1 construct: extracellular domain; also called Siglec-8 ECD; full Siglec-8 ECD
T1 sequence (Q9NYZ4 17-363): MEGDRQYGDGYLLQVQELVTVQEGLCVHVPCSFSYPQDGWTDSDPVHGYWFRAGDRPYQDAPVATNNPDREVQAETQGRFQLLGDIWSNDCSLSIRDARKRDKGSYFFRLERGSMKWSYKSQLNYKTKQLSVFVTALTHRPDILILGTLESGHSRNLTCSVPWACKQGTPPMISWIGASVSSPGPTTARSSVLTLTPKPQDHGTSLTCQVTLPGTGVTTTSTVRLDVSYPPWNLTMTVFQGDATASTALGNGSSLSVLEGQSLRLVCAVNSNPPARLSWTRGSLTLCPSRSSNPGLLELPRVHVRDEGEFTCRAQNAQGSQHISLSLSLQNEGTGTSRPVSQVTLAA
Assay: ELISA, coated Siglec-8 ECD
Report as a plain number; the unit nM is understood.

For orientation, consider the following solved cases.
>  <binder>
RHE S-G KFmut (antibody, V domains shown, human IgG1/kappa) VH: EVQLVESGGGLVQPGGSLRLSCAASGFSLTIYGAHWVRQAPGKGLEWVGVIWAGGSTNYNSALMSRFTISKDNSKNTVYLQMNSLRAEDTAVYYCARDGSSPYYYGMEYWGQGTTVTVSS VL: EIVLTQSPATLSLSPGERATLSCSATSSVSYMHWFQQKPGQAPRLLIYSTSNLASGIPARFSGSGSGTDYTLTISSLEPEDFAVYYCQQRSSYPYTFGPGTKLDIK

>  <EC50 / nM>
207

$$$$
>  <binder>
HA2KFmut (antibody, human IgG1, V domains shown, human IgG1/kappa) VH: QVQLQESGPGLVKPSETLSLTCTVSGGSISIYGAHWIRQPPGKGLEWIGVIWAGGSTNYNSALMSRVTISVDTSKNQFSLKLSSVTAADTAVYYCARDGSSPYYYSMEYWGQGTLVTVSS VL: EIVLTQSPATLSLSPGERATLSCSATSSVSYMHWFQQKPGQAPRLLIYSTSNLASGIPARFSGSGSGTDYTLTISSLEPEDFAVYYCQQRSSYPYTFGPGTKLDIK

>  <EC50 / nM>
31.6

$$$$

Next up:
For HAKG (antibody, human IgG1, V domains shown, human IgG1/kappa) VH: EVQLVESGGGLVQPGGSLRLSCAASGFSLTIYGAHWVRQAPGKGLEWVSVIWAGGSTNYNSALMSRFTISKDNSKNTVYLQMNSLRAEDTAVYYCARDGSSPYYYSMEYWGQGTTVTVSS VL: EIVLTQSPATLSLSPGERATLSCSATSSVSYMHWYQQKPGQAPRLLIYSTSNLASGIPARFSGSGSGTDFTLTISSLEPEDFAVYYCQQRSSYPFTFGPGTKLDIK the binder record lists EC50 as 0.189
